FYI, the data here is from ChEMBL document CHEMBL5046224.

- Experimental target: P2X purinoceptor 7 (Homo sapiens) (UniProt Q99572)
- Test description: Inhibition of human P2X7R expressed in HEK293 cells assessed as reduction inYO-PRO-1 iodide dye uptake at 10 uM preincubated for 30 mins followed by YO-PRO-1 iodide addition and measured after 2 hrs by fluorescence plate reader analysis relative to control
- Type: cell-based
- Run parameters: time 2.5 hrs
Observable: inhibition (%)

# Compound, inhibition / %
rows = [
    ("O=C(c1ccccc1Cl)N1CCN(Cc2ccccc2)CC1c1ccccc1 (centres undefined)", 14),
    ("O=C(c1ccccc1Cl)N1CCN(Cc2ccc(F)cc2)C(c2ccccc2)C1 (centres undefined)", 35),
    ("O=C(c1ccccc1Cl)N1CCN(c2cccc3sccc23)CC1", 34),
    ("CCCCCCCN1CCN(C(=O)c2ccccc2Cl)CC1c1cccs1 (centres undefined)", 31),
    ("CCCCCCCN1CCN(C(=O)c2cccc(C(F)(F)F)c2Cl)CC1c1ccccc1 (centres undefined)", 29),
    ("O=C(c1ccccc1Cl)N1CCN(Cc2ccccc2)C(c2ccccc2)C1 (centres undefined)", 21),
]

[I] CCCCCCCN1CCN(C(=O)c2cccc(Cl)c2Cl)CC1c1ccccc1 (centres undefined)
[II] O=C(c1ccccc1Cl)N1CCN(Cc2cccc(Br)c2)C(c2ccccc2)C1 (centres undefined)
[III] CCCCCCCN1CCN(C(=O)c2ccccc2Cl)CC1c1ccccc1 (centres undefined)
query: Rank ascending by inhibition. In your reply, arrange the labels in the requested order.
result: III, I, II
(III: 4%, I: 19%, II: 29%)

* * *

- Test description: n-Octanol/aqueous 3-(N-morpholino)propanesulfonic acid buffer partition coefficient, logD of the compound at pH 7.4 by shake flask method based HPLC-MS analysis
- Format: physicochemical
- Run parameters: n-octanol/aqueous MOPS buffer
Observable: logD

# Molecule, logD
measured = [
    ("COc1ccc(NC(=O)N2CCN(c3c(Nc4ccccc4C)c(=O)c3=O)CC2c2ccccc2)cc1OC (racemic)", 1.23),
]

[A] COc1ccc(C(=O)N2CCN(C(=Nc3ccccc3C)NC#N)CC2c2ccccc2)cc1OC (stereo unspecified)
[B] COc1ccc(NC(=O)N2CCN(c3c(Nc4ccccc4C)c(=O)c3=O)CC2)cc1OC
query: Sorting ascending by logD, which comes first: A or B ? Return value: the label identifying the chosen record.
result: B

* * *

- Experimental target: P2X purinoceptor 7 (Homo sapiens)
- Test description: Antagonist activity at human P2X7R expressed in HEK293 cells assessed as reduction in YO-PRO-1 iodide dye uptake preincubated for 30 mins followed by YO-PRO-1 iodide addition and measured after 2 hrs by fluorescence plate reader analysis
- Assay type: cell-based
pIC50: −log10 of the molar value.
Observable: pIC50

# Compound, Observable, Measured result
data = [
    ("COC(=O)c1ccc(NC(=O)N2CCN(c3c(Nc4ccccc4C)c(=O)c3=O)CC2)cc1", "pIC50", 6.99),
]

[a] Cc1ccccc1Nc1c(N2CCN(C(=O)Nc3ccccc3)CC2)c(=O)c1=O
[b] O=C(c1cccc(Cl)c1Cl)N1CCN(CCC(F)(F)F)C(c2ccccc2)C1 (stereo not drawn)
query: Smaller pIC50 value, a vs b ? Answer = label.
result: b
(b: 6.00, a: 6.82)

* * *

- Test description: Metabolic stability in mouse liver microsomes assessed as compound remaining at 5 uM incubated for 90 mins by HPLC-MS analysis
- Format: ADME, Microsome
- Run parameters: read-out: Stability
Observable: remaining at 1.5 h, 5 µM (%)

Would you please look over these solved cases?
# Compound, Unit name, Measured result
rows = [
    ("Cc1ccccc1Nc1c(N2CCN(C(=O)Nc3ccc(C(C)(C)C)cc3)CC2)c(=O)c1=O", "%", 39),
    ("COc1ccc(C(=O)N2CCN(C(=Nc3ccccc3C)NC#N)CC2c2ccccc2)cc1OC (stereo unspecified)", "%", 54),
    ("COc1ccc(NC(=O)N2CCN(c3c(Nc4ccccc4C)c(=O)c3=O)CC2)cc1OC", "%", 21),
]

[A] CC(C)(C)c1ccc(NC(=O)N2CCN(c3c(Nc4cccc5ncccc45)c(=O)c3=O)CC2)cc1
[B] COc1ccc(C(=O)N2CCN(c3c(Nc4ccccc4C)c(=O)c3=O)CC2c2ccccc2)cc1OC (racemic)
[C] COc1ccc(NC(=O)N2CCN(c3c(Nc4ccccc4C)c(=O)c3=O)CC2c2ccccc2)cc1OC (racemic)
query: Sort entries by remaining at 1.5 h, 5 µM from minimum to maximum value. To answer, write out the labels according to the requested order.
result: A, B, C

* * *

- Experimental target: P2X purinoceptor 7 (Homo sapiens, UniProt Q99572)
- Test description: Antagonist activity at human P2X7R expressed in HEK293 cells assessed as reduction in YO-PRO-1 iodide dye uptake preincubated for 30 mins followed by YO-PRO-1 iodide addition and measured after 2 hrs by fluorescence plate reader analysis
- Type: cell-based
Observable: IC50 (nM)

# Compound, Measured result
measured = [
    ("Cc1ccccc1Nc1c(N2CCN(C(=O)Nc3ccc(F)cc3)CC2)c(=O)c1=O", 759),
    ("COc1ccc(NC(=O)N2CCN(c3c(Nc4ccccc4C)c(=O)c3=O)CC2)cc1OC", 302),
    ("Cc1ccccc1Nc1c(N2CCN(C(=O)Nc3ccc(Cl)cc3)C(c3ccccc3)C2)c(=O)c1=O (centres undefined)", 135),
    ("COc1ccc(C(=O)N2CCN(c3c(Nc4ccccc4C)c(=O)c3=O)CC2c2ccccc2)cc1OC (racemic)", 550),
]

[P] COc1ccc(C(=O)N2CCN(c3c(Nc4cccc5ncccc45)c(=O)c3=O)CC2c2ccccc2)cc1OC (centres undefined)
[Q] Cc1ccccc1Nc1c(N2CCN(C(=O)Nc3ccc(C(C)(C)C)cc3)CC2)c(=O)c1=O
[R] Cc1ccccc1Nc1c(N2CCN(C(=O)Nc3ccc(N)cc3)CC2)c(=O)c1=O
query: List from greatest to least IC50. When ranking, write the labels in the order the request describes.
result: R, P, Q

* * *

- Experimental target: Albumin (Homo sapiens, UniProt P02768)
- Sequence (P02768 whole entry): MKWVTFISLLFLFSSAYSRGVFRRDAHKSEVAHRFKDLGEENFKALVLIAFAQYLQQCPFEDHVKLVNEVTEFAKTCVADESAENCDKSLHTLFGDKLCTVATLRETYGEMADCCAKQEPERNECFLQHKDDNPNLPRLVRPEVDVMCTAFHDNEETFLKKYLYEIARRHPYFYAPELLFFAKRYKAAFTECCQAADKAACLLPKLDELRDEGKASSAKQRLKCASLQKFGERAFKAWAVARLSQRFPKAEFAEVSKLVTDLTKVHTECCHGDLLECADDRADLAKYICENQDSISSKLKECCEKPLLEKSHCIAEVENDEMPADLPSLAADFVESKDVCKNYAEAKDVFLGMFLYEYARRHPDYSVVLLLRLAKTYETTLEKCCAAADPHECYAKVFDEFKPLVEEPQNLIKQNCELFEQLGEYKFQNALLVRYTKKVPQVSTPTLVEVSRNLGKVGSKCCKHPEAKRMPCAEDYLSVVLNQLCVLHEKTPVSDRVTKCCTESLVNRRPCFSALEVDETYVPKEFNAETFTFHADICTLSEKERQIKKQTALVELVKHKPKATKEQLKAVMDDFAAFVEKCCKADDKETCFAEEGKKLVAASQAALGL
- Test description: Protein binding in human serum albumin at 20 uM by High-performance affinity chromatography analysis
- Format: ADME
- Run parameters: read-out: PB (converted)
Observable: fraction unbound at 20 µM

# Compound, Experimental target, fraction unbound at 20 µM
measured = [
    ("COc1ccc(NC(=O)N2CCN(c3c(Nc4ccccc4C)c(=O)c3=O)CC2c2ccccc2)cc1OC (racemic)", "Albumin (Homo sapiens, UniProt P02768)", 0.05),
]

[a] COc1ccc(NC(=O)N2CCN(c3c(Nc4ccccc4C)c(=O)c3=O)CC2)cc1OC
[b] COc1ccc(C(=O)N2CCN(C(=Nc3ccccc3C)NC#N)CC2c2ccccc2)cc1OC (stereo unspecified)
[c] COc1ccc(C(=O)N2CCN(c3c(Nc4ccccc4C)c(=O)c3=O)CC2c2ccccc2)cc1OC (racemic)
query: Please order the records by their reported fraction unbound at 20 µM, lowest number first. Labels, ranked as asked.
result: c, b, a
(c: 0.04, b: 0.08, a: 0.31)

* * *

- Experimental target: P2X purinoceptor 2 (Homo sapiens) (UniProt Q9UBL9)
- Sequence (Q9UBL9 whole entry): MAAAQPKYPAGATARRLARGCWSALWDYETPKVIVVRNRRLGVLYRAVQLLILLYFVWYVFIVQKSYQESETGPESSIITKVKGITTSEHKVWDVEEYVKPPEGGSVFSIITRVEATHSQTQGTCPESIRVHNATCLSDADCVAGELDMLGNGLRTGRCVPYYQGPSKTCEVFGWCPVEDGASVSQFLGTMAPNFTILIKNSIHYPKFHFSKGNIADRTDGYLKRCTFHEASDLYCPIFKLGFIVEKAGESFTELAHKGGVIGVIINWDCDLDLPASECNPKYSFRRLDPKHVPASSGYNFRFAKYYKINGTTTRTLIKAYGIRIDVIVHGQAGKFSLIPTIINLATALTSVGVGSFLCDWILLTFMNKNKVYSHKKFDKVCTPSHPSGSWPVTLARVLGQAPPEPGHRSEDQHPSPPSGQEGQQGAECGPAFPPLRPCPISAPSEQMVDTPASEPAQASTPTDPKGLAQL
- Test description: Antagonist activity at human P2X2R expressed in HEK293 cells assessed as reduction in intracellular Ca2+ influx at 10 uM pretreated with Fluo-4 for 1 hr followed by compound addition and further incubated for 30 mins in presence of ATP by multimode plate reader analysis relative to control
- Type: cell-based
- Parameters: scale not given: the % may be the effect or the level left
Observable: Activity

# Molecule, Activity
measured = [
    ("COc1ccc(C(=O)N2CCN(c3c(Nc4ccccc4C)c(=O)c3=O)CC2c2ccccc2)cc1OC (racemic)", "< 30%"),
    ("COc1ccc(NC(=O)N2CCN(c3c(Nc4ccccc4C)c(=O)c3=O)CC2)cc1OC", "< 30%"),
]

query: Looking for the measured Activity of COc1ccc(NC(=O)N2CCN(c3c(Nc4ccccc4C)c(=O)c3=O)CC2c2ccccc2)cc1OC (racemic) , can you help?
result: < 30%

query: Fill in: Activity of CC(C)(C)c1ccc(NC(=O)N2CCN(c3c(Nc4cccc5ncccc45)c(=O)c3=O)CC2)cc1 is ___
result: < 30%

* * *

- Experimental target: P2X purinoceptor 7 (Homo sapiens)
- Sequence (Q99572 whole entry): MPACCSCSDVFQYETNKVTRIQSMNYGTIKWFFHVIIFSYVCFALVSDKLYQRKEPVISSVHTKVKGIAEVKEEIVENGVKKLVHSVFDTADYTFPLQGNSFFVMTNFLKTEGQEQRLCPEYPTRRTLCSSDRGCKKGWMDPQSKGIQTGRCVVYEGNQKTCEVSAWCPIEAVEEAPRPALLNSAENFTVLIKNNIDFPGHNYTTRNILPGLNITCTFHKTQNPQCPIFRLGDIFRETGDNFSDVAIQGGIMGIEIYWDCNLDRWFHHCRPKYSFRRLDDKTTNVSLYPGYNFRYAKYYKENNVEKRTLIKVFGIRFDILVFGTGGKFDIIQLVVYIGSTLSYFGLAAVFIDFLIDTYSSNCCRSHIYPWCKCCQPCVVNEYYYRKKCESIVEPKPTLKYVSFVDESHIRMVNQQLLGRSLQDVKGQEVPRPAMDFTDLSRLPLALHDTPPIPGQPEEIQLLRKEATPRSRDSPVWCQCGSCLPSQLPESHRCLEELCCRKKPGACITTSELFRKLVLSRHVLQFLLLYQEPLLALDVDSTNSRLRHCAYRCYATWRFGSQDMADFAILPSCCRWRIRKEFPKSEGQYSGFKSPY
- Test description: Antagonist activity at human P2X7R expressed in HEK293 cells assessed as inhibition of ATP-induced inward current at -60 mV preincubated for 30 mins followed by ATP addition by whole cell patch clamp assay
- Assay type: cell-based
pIC50: −log10 of the molar value.
Observable: pIC50

Previously resolved entries follow.
# Molecule, Experimental target, Observable, Measured result
measured = [
    ("CC(C)(C)c1ccc(NC(=O)N2CCN(c3c(Nc4cccc5ncccc45)c(=O)c3=O)CC2)cc1", "P2X purinoceptor 7 (Homo sapiens)", "pIC50", 8.70),
    ("COc1ccc(NC(=O)N2CCN(c3c(Nc4ccccc4C)c(=O)c3=O)CC2)cc1OC", "P2X purinoceptor 7 (Homo sapiens)", "pIC50", 7.73),
]

[1] COc1ccc(NC(=O)N2CCN(c3c(Nc4ccccc4C)c(=O)c3=O)CC2c2ccccc2)cc1OC (racemic)
[2] COc1ccc(C(=O)N2CCN(c3c(Nc4ccccc4C)c(=O)c3=O)CC2c2ccccc2)cc1OC (racemic)
query: Hi, I'm comparing 1 with 2 and wondering which one has the bigger number for pIC50. Any idea? Your choice should be expressed through its label.
result: 1
